Origin of the recorded values: paper PMC10525924

Assign Diameters of the inhibition zones, Trypsin-Untreated Group, Yej^+rimL^− to each entry below.
- Tested on: Yej^+rimL^− strain
- experiment_notes: organism not typed
- Format: cell-based
- particulars: agar diffusion; 200 μL fermentation supernatant; 1 × 10^5 CFU/mL; 4 °C 1 h then 37 °C 24 h; chloramphenicol 100 μL of 0.25 μg/mL; dash = no zone
Where a SMILES comes first, the peptide text is derived from it.
Answers are plain numbers, in mm.

Worked cases, answers included:
molecule	result_number
CSCC[C@H](NC=O)C(=O)N[C@@H](CC(=O)O)C(=O)N[C@H](C(=O)NCC(=O)N[C@@H](CC(N)=O)C(=O)N[C@@H](C)C(=O)N[C@@H](CC(=O)O)C(=O)NP(=O)(OCCCN)OC[C@H]1O[C@@H](n2cnc3c(N)ncnc32)[C@H](O)[C@@H]1O)[C@@H](C)O (stereo partly shown) [R2D] (HELM PEPTIDE1{[O=C[*:2]].M.D.T.G.N.A.[NCCCOP(=O)(NC(=O)[C@H](CC(=O)O)N[*:1])OC[C@H]1O[C@@H](n2cnc3c(N)ncnc32)[C@H](O)[C@@H]1O]}$$$$V2.0)	17.71
CSCC[C@H](NC=O)C(=O)N[C@@H](Cc1ccc(O)cc1)C(=O)N[C@H](C(=O)NCC(=O)N[C@@H](CC(N)=O)C(=O)N[C@@H](C)C(=O)N[C@@H](CC(=O)O)C(=O)NP(=O)(OCCCN)OC[C@H]1O[C@@H](n2cnc3c(N)ncnc32)[C@H](O)[C@@H]1O)[C@@H](C)O (stereo partly shown) [R2Y] (HELM PEPTIDE1{[O=C[*:2]].M.Y.T.G.N.A.[NCCCOP(=O)(NC(=O)[C@H](CC(=O)O)N[*:1])OC[C@H]1O[C@@H](n2cnc3c(N)ncnc32)[C@H](O)[C@@H]1O]}$$$$V2.0)	18.87
CSCC[C@H](NC=O)C(=O)N[C@@H](CCSC)C(=O)N[C@H](C(=O)NCC(=O)N[C@@H](CC(N)=O)C(=O)N[C@@H](C)C(=O)N[C@@H](CC(=O)O)C(=O)NP(=O)(OCCCN)OC[C@H]1O[C@@H](n2cnc3c(N)ncnc32)[C@H](O)[C@@H]1O)[C@@H](C)O (stereo partly shown) [R2M] (HELM PEPTIDE1{[O=C[*:2]].M.M.T.G.N.A.[NCCCOP(=O)(NC(=O)[C@H](CC(=O)O)N[*:1])OC[C@H]1O[C@@H](n2cnc3c(N)ncnc32)[C@H](O)[C@@H]1O]}$$$$V2.0)	21.57

Turning to the following molecule.
Give Diameters of the inhibition zones, Trypsin-Untreated Group, Yej^+rimL^− for the following molecule: CSCC[C@H](NC=O)C(=O)N[C@@H](CCC(N)=O)C(=O)N[C@H](C(=O)NCC(=O)N[C@@H](CC(N)=O)C(=O)N[C@@H](C)C(=O)N[C@@H](CC(=O)O)C(=O)NP(=O)(OCCCN)OC[C@H]1O[C@@H](n2cnc3c(N)ncnc32)[C@H](O)[C@@H]1O)[C@@H](C)O (stereo partly shown) [R2Q] (HELM PEPTIDE1{[O=C[*:2]].M.Q.T.G.N.A.[NCCCOP(=O)(NC(=O)[C@H](CC(=O)O)N[*:1])OC[C@H]1O[C@@H](n2cnc3c(N)ncnc32)[C@H](O)[C@@H]1O]}$$$$V2.0)
19.45
